# test.system: Clostridium difficile toxin A, soluble full-length (TechLab) (Clostridium difficile, UniProt P16154 1-2710)
# test: cell-based or functional assay
experimental.readout: IC50, Vero cell viability (neutralization), Trial 2, 32 pM Toxin A (pM)
// return numeric value only (unit: pM, not printed)

Report measured IC50, Vero cell viability (neutralization), Trial 2, 32 pM Toxin A; entry is H2M3124N (antibody, V domains shown, also called H2aM3124N; H1M3124N) VH: EIQLIESGGDMVQPGGSLRLSCAASGISLNSYEMNWVRQTPGMGLEWISHISSSGTSIYYANSVKGRFTIFRDSAKNSLLLQMNSLRAEDTAIYYCARERYDHSGYYYLGMDVWGLGTTVTVSS VL: DIQMTQSPSTLSASLGDRVTITCRASQNIDNWMAWYQQKVGKAPKLLIYRASTLETGVPSRFGGSGFGTEFTLTISSLQPGDFATYYCQEYNSYFRTFGQGTKVEIK
21
